Assay summary: acute toxicity, oral, in mice
Assay type: in vivo
Recorded conditions: mouse, in vivo, po, Table 4; oral, female Slc: ddy mice, 6 days observation, Litchfield-Wilcoxon; read-out: LD50
Description: Moreover, the introduction of substituent groups such as an alkoxyl group, an alkenyloxy group and hydroxyl group to the 5, 6, 7 or 8 position of the coumarin ring brings the decrease of toxicity. […] After normal female Slc: ddy mice 4 weeks old were purchased and fed preliminarily in this lavoratory for a week, these mice weighing 25-27 g. were used in the test. […] The numbers of dead animals were counted and the LD50 values in mg./kg. body weight were calculated by the method of Litchfield-Wilcoxon.
Recorded LD50 at 144 h, one value per entry.
Value type: LD50 at 144 h

COc1cc2cc(-c3nnn[nH]3)c(=O)oc2cc1C    500 to 1000 mg/kg
CCCCCCOc1cccc2cc(-c3nnn[nH]3)c(=O)oc12    2650 mg/kg
CCCOc1cc(C)cc2cc(-c3nnn[nH]3)c(=O)oc12    1000 to 2000 mg/kg
CCCCCCCCCOc1cccc2cc(-c3nnn[nH]3)c(=O)oc12    2000 to 3000 mg/kg
CC(C)=CCCC(C)=CCCC(C)=CCOc1cccc2cc(-c3nnn[nH]3)c(=O)oc12    1000 to 2000 mg/kg
O=c1oc2c(O)cccc2cc1-c1nnn[nH]1 [Example 19, 8-Hydroxy-3-(1H-tetrazol-5-yl)coumarin]    2000 to 3000 mg/kg
COc1ccc2cc(-c3nnn[nH]3)c(=O)oc2c1C    300 to 1000 mg/kg
CCCCOc1cc(C)cc2cc(-c3nnn[nH]3)c(=O)oc12    1870 mg/kg
CCOc1cc2oc(=O)c(-c3nnn[nH]3)cc2cc1CC=C(C)C    500 to 1000 mg/kg
